B1: tRNA (parent)
chain: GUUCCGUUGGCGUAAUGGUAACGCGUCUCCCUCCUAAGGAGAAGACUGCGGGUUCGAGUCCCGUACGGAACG

Variants of: B1
Test: yeast fitness relative to wild type (ratio to wild type); higher = fitter; tRNA-Arg(CCU), competitive growth, 37 C, YPD
Fewer inactive variants are shown than the library holds.
Binary classification by yeast fitness, with 0.6 as an inclusive lower bound for true (1); all other cases are false (0).

INSERT INTO assay_data (input_sequence, group) VALUES
  ('GUUCCGUUGACGUACUGGUAACGCAUCUCCCUCCUAAGGAGAAGACCGCGGGUUCGAGUCCCGUAUGGAACG [G10A A15C G25A U47C C66U]', 'false (0)'),
  ('GUUCCGUCGGCGUAAUAGUAACGCGUCUCCCUCCUAAGGAGAAGACUGCGGGUUCGAGUCCCGUACGGAACG [U8C G17A]', 'true (1)'),
  ('GUUCCGUUGCCGUAAUGGUAACGCGUCUCCCUCCUAAGGAGAAGACUGUGGGUUCGAGUCCCGUAGGGAACG [G10C C49U C66G]', 'false (0)'),
  ('GUUCUGUUGCCGUAAUGGUAACGCGUCUCCCUCCUAAGGAGAAGACUGCGGGUUCGAGUCCCGUACGGAACG [C5U G10C]', 'true (1)'),
  ('GUUCCGUUGGCAUAAUGGUAACGCGUCUCCAUCCUAACGAGAAGACUGCGGGUUCGAGUCCCGUGCGGAACG [G12A C31A G38C A65G]', 'false (0)'),
  ('GUUCCGUUGGCGUAAUGGUAAGGCGUCUCCAUCCUAAGGAGAGGACUGCGGGUUCGCGUCCCGUUCGGAACG [C22G C31A A43G A57C A65U]', 'false (0)'),
  ('GUUCCGUUGGCGAUAUGGUAACGCGUGUCCCUCCUAAGGAGAAGAGUGCGGGUUCGAGUCCCGUACGGAACG [U13A A14U C27G C46G]', 'false (0)'),
  ('GUCCCGUUGGCGUAAUGGUAACGCGUCUCCCUCCUAAGGAGAAGACUGCGCGUUCGAGUCCCGUACGGAACG [U3C G51C]', 'false (0)'),
  ('GUUCCGUUGGCGUAAUGGUAACGCGUCUCCCUCCUAGGGAGAAGACUGCGGGUUCGAGUCCCGUACCGAACG [A37G G67C]', 'true (1)'),
  ('GUUCCGUUGGCGUAAUGGUAACGGGUCUCCCUCCUAAGGAGAAGACUGCGGGUUCGAGUCCCGUAAGGAACG [C24G C66A]', 'false (0)'),
  ('GUUCCGUUGGCGUAAUAGUAACGCGUCUCCCUCCUAAGGAGAAGACUGCGGGUUCGAGUCCCGUUCGGAACG [G17A A65U]', 'true (1)'),
  ('GUUCCAUUGGCGUAAUGGUAACGCGUCUCCCUCUUAAGCAGAAGACUGCGGGUUCGAGUCCCGUACGGAACG [G6A C34U G39C]', 'false (0)'),
  ('GUUCCGUUGGCGUAAUGGUAACGCGUCUCCCUCCUAAGGAGACGACUGCGGGUUCGAGUCCCGUUCGGAACG [A43C A65U]', 'true (1)'),
  ('GUUCCGUUGGCGUAAUGGUAACGCGUCUGCCUCCUACGGAGAAGACUGCGGGUUCGAGUCCCAUGCGGAACG [C29G A37C G63A A65G]', 'false (0)'),
  ('GUUCCGUUGGCGUAAUGGUAAAGCGUCUCCCUCCUAAGGAGAAGACUGCGGGUUCGAGUUCCGUACGGAACG [C22A C60U]', 'true (1)'),
  ('GUUCCGUCGGCGUAUUGGUCACACGUCUCCCUCCUAAGGAGAAGACUGCCGGUUCGAGUCCCGUACGGAACG [U8C A15U A20C G23A G50C]', 'false (0)'),
  ('GAUCCGUUGGCGUAAUGGUAACGCGUCUCCCUCCUAAGGAGAAGACUGCGGGUUCGAGUCCCGUACGAAACG [U2A G68A]', 'true (1)'),
  ('GUUCCGUUGGCGUAAUGGUAACGCGUCUCCGUGCUAAGGAGAAGACAGCGGGUUCGAGUCCCGUACGGAACG [C31G C33G U47A]', 'false (0)'),
  ('GUUCCGUUGGCGUAAUGGUAAAGCGUCGCCCUCCUAAGGAGAAGACUGCGGGUUCGAGUCCCGUACUGAACG [C22A U28G G67U]', 'false (0)'),
  ('GUUCCGUUGGCGUAAUGGUGACGCGUCUCCCUCCUAAGGCGUCGACUACGGGUUCGAGUCCCGUACGGAACG [A20G A40C A42U A43C G48A]', 'false (0)'),
  ('GUUCCGGUGGCGUAAUGGUAACGCGUAUCCCUCCUCAGGAGUAGACUGCGGGUUCGAGUCCCGGACGGAACG [U7G C27A A36C A42U U64G]', 'false (0)'),
  ('GUUCCGUUGGCGUAAUGGCAACGCGUCUCCCUCCUAAGGAGAAGACUGCGGGUUUGAGUCACGUACGGAACG [U19C C55U C61A]', 'false (0)'),
  ('GUUCCGUUGGCGUAAUGGUAACGCGUCUCUCGCCUAGGGAGAAGACUGCGGGUUCGAGUCCCAUACGGAACG [C30U U32G A37G G63A]', 'false (0)'),
  ('GUUCCAUUGGCGGAAUGGUAACGCGUUUCCCUCCUAAGGAGAAGACUGCGGGUUCGAGUCGCGUAUGGAACG [G6A U13G C27U C61G C66U]', 'false (0)'),
  ('GUUCCGUUGGCGUAAUGGUAACGCGUCUUCCUCCUAAGGAGACGACUGCGAGUUCGAGUCCCGUACGGAACG [C29U A43C G51A]', 'false (0)'),
  ('GUUACGUUGGCGUAAUGGUAACGCGUCUCCCUACUAAGAAGAAGACUGCGCGUUCGAGUCCCGUACGGAACG [C4A C33A G39A G51C]', 'true (1)'),
  ('GUUUCGUUGGCGUAAUGGUGACGCGUCUCCCGCCUAAGGAGACGUCUGCGGGUUCGAGUCCCGUACGGAACG [C4U A20G U32G A43C A45U]', 'false (0)'),
  ('GUUCCGUUGGCGUAAUGGUAAGGCGUCUUCAUCCUAAGGAGAAGACUGCGGGUUCGAGUCCCGUGCGGAACG [C22G C29U C31A A65G]', 'false (0)'),
  ('GUUCCGUGGCCGUAAUGGUGACGCGUCUCCCUCCUAAGGAGAAGACUGCGGGUUUGAGUCCCGUACGGAACG [U8G G10C A20G C55U]', 'false (0)'),
  ('GUUCCGUUGGCGUAAUGGUAACGCUUCUCCCUCCUUAGGAGAAGACUGCGGGUUCCAGUCCCGUACGGAACG [G25U A36U G56C]', 'false (0)'),
  ('GUUCCGUUGGCGUUAUGGUAACGCGUGUCCCUCCUAAGGAGAAGACUGCGGAUUCGAGUUCCGUACGGAACG [A14U C27G G52A C60U]', 'false (0)'),
  ('GUUCCGUUGGCGUAAUGGUAACGCGUCUCCCUCCUAAGGAGAAGACUGCGGGUUCGAGCCCCGUACGGAUCG [U59C A70U]', 'true (1)'),
  ('GUUCCGUUGGCGUAAUGCUAACGCGUCUCCCUCGUAAGCAGAAGACUGCGGGUUCGAGUCCCGUACGGAACG [G18C C34G G39C]', 'false (0)'),
  ('GUUCCGUUGGUAUAAUGGUAACGCGUCUCCUUCCUAAGGAGAAGACUGCGGGCUCGAGUCCCAUCCGGAACG [C11U G12A C31U U53C G63A A65C]', 'false (0)'),
  ('GUUUCGUUGGCGUAAUGGUAACGCGUGUCCCUCCUAAGGAGAAGACUGCGGGUUCGAGUCCCGUUCGGAACG [C4U C27G A65U]', 'false (0)'),
  ('GAUCCGUUGGCGUAAUGGUAACGCGUGUCCCUCCUAAGGAGAAGACUGCGGGUUCGAGUCCCGUACGGAACG [U2A C27G]', 'true (1)'),
  ('GUUCCGUUGGCGUAAUGAUAACGCCUCUCCCUCCUAAGGAGAUGACUGCGGGUUCGAGUCCCGUACGGCACG [G18A G25C A43U A69C]', 'false (0)'),
  ('GUUCCGUUGGCGUAAUGGUAACGCGUCUUCCUAUUAAGGAGAAGACUGCGCGUUCGAGUCCCGAAUGGCACG [C29U C33A C34U G51C U64A C66U A69C]', 'false (0)'),
  ('GUUCCGUUGGAGUAAUGGUAACGCGUCUCCCUCCUAAGGAGAAGACUGCGGGUUCGAGUCCGGUACGGAACG [C11A C62G]', 'false (0)'),
  ('GUUCCGUUGGCGUAAUGGUAACGCGUCUCUCUCCUAAGAGGAAGACUGCGGGUUCGAGUCCCGUACAGAACG [C30U G39A A40G G67A]', 'false (0)'),
  ('GUUCCGUUGGCGUAACGGUAACGCGUCUCCCUCCUAAGGAGAAGACUGCGGGUUCGAGUACUGUACGGAACG [U16C C60A C62U]', 'false (0)'),
  ('GUUCCGUUGGCGUAAUGGUAACGCGUCUCCCUCCUAAGGAGAUGAAUGCGGGUUCGAGUCCCGUACGGAACG [A43U C46A]', 'true (1)'),
  ('GUUCUGUUGGCGUAAUGGUAACGCGUCUCCCUCGUAAGGAGAAGACUGCGGGUUCGAGUCCCGUACGGAACG [C5U C34G]', 'true (1)'),
  ('GUUCCGUUGGCGUACCGGUAACGCGUCUCCCUCCUACGGAGAAGACUGCGGGUUCGAGUACCGUACGGAACG [A15C U16C A37C C60A]', 'false (0)'),
  ('GUUCCGUUGGCGUAAUGGUAACGUGUCUCCAUCCUAAGGAGAAGACUGCGGGUUCGAGUCCCGUACGGAACG [C24U C31A]', 'true (1)');

Attribution: the RNAGym collection of RNA variant scans (doi:10.1126/science.aae0568)
